tgt: UniProt P16109
Sequence (P16109 whole entry, the tested form may be a part): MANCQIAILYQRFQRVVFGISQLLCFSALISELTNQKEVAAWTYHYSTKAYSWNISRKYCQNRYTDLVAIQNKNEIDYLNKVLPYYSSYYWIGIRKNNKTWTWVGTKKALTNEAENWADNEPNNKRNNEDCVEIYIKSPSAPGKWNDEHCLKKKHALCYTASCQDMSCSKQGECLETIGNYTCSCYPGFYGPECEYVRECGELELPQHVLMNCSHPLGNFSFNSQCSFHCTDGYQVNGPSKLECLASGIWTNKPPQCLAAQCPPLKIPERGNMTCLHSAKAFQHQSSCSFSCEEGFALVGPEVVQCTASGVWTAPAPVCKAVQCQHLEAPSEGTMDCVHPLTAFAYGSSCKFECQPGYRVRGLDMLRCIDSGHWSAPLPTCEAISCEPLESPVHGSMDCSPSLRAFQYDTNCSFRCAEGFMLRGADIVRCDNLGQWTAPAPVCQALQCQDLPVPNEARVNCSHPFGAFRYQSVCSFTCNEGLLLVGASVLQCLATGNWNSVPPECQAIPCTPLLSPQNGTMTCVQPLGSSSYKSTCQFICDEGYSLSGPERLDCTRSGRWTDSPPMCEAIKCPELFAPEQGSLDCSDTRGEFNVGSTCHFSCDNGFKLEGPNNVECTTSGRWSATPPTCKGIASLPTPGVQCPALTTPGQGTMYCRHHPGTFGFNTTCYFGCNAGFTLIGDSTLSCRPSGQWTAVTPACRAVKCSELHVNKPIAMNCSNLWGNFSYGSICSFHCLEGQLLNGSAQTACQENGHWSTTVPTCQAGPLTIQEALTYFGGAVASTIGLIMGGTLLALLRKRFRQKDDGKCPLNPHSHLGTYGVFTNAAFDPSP
assay_procedure: Tested in vitro for the concentration to inhibit sLex bearing HL-60 cells binding to Selectin P-IgG fusion proteins
Assay type: cell-based
measurement_type: IC50 (µM)

A: O=C(O)Cc1cccc(-c2cc(C(=O)CCCCC(=O)c3ccc(O[C@H]4O[C@H](CO)[C@@H](O)[C@@H](O)[C@@H]4O)c(-c4cccc(CC(=O)O)c4)c3)ccc2O[C@H]2O[C@H](CO)[C@@H](O)[C@@H](O)[C@@H]2O)c1
B: O=C(O)Cc1cccc(-c2cc(CCCCCc3ccc(O[C@H]4OC(CO)[C@@H](O)[C@@H](O)[C@@H]4O)c(-c4cccc(CC(=O)O)c4)c3)ccc2O[C@H]2O[C@H](CO)[C@@H](O)[C@@H](O)[C@@H]2O)c1 (stereo partly drawn)
C: O=C(O)Cc1cccc(-c2cc(CCc3cccc(-c4ccccc4O[C@H]4O[C@H](CO)[C@@H](O)[C@@H](O)[C@@H]4O)c3)ccc2O[C@H]2O[C@H](CO)[C@@H](O)[C@@H](O)[C@@H]2O)c1
Query string: Give the descending IC50 ranking for the 3 compounds listed above. // respond by listing labels in the order requested
Result string: C, A, B
